# growth at 10 µM values compiled below
tested on: HT-29; test: Growth inhibition of human HT-29 cells assessed as growth percentage at 10 uM incubated for 48 hrs by sulforhodamine B assay relative to control; format: functional; details: HT-29, 48 h, read-out: Activity
Field: numeric (%). Do not append units.

Example results:
| Compound | Test System | Measurement Kind | Observed Result |
| --- | --- | --- | --- |
| CC1=C(C(=O)c2ccccc2)C(c2ccc3c(c2)OCO3)NC(=O)N1 (racemic) | HT-29 | growth at 10 µM | 105 |
| CC1=C(C(=O)OCc2ccccc2)C(c2ccc3c(c2)OCO3)NC(=O)N1 (racemic) | HT-29 | growth at 10 µM | 109 |
| O=C1C2=C(NC(=S)NC2c2ccc3c(c2)OCO3)c2ccccc21 (racemic) | HT-29 | growth at 10 µM | 108 |
| COCCOC(=O)C1=C(C)NC(=S)N(C(C)=O)C1c1ccc2c(c1)OCO2 (racemic) | HT-29 | growth at 10 µM | 106 |
| O=C1NC2=C(C(=O)c3ccccc32)C(c2ccc3c(c2)OCO3)N1 (racemic) | HT-29 | growth at 10 µM | 107 |
| CC(=O)C1=C(C)Nc2nc3ccccc3n2C1c1ccc2c(c1)OCO2 (racemic) | HT-29 | growth at 10 µM | 105 |

Exercise: For HT-29, give growth at 10 µM of the listed compound: CC(=O)C1=C(C)NC(=S)NC1c1ccc2c(c1)OCO2 (racemic)
Solution: 106

Exercise: Would you please give the reported growth at 10 µM of CC1=C(C(=O)OCc2ccccc2)C(c2ccc3c(c2)OCO3)NC(=S)N1 (racemic) with HT-29?
Solution: 105

Exercise: Answer briefly: growth at 10 µM recorded on HT-29 for CC1=C(C(=O)OC(C)C)C(c2ccc3c(c2)OCO3)NC(=S)N1 (racemic)
Solution: 103

Exercise: // fetch growth at 10 µM; item: CC(=O)C1=C(C)NC(=O)NC1c1ccc2c(c1)OCO2 (racemic) ; system: HT-29
Solution: 104

Exercise: GET growth at 10 µM where system = HT-29 and item = CC1=C(C(=O)OCC(C)C)C(c2ccc3c(c2)OCO3)NC(=S)N1 (racemic)
Solution: 106

Exercise: Provide growth at 10 µM, system HT-29, entry CC1=C(C(=O)c2ccccc2)C(c2ccc3c(c2)OCO3)NC(=S)N1 (racemic)
Solution: 18.5

Exercise: Provide HT-29 growth at 10 µM reading for CC1(C)CC(=O)C2=C(C1)NC(=O)NC2c1ccc2c(c1)OCO2 (racemic) .
Solution: 114

Exercise: Quote growth at 10 µM with test system HT-29 for CC(=O)N1C(=S)NC(C)=C(C(=O)OCc2ccccc2)C1c1ccc2c(c1)OCO2 (racemic)
Solution: 52.2

###

Measured growth at 10 µM values are reported for all entries that follow.
test system: NCI-H460; experiment: Growth inhibition of human NCI-H460 cells assessed as growth percentage at 10 uM incubated for 48 hrs by sulforhodamine B assay relative to control; type: functional; conditions: NCI-H460, 48 h, read-out: Activity
Supply the numeric figure in %, leaving out any unit text.

For orientation, consider the following solved cases.
| Compound | Value Unit | growth at 10 µM |
| --- | --- | --- |
| CC(=O)C1=C(C)NC(=S)NC1c1ccc2c(c1)OCO2 (racemic) | % | 109 |
| CC1=C(C(=O)OC(C)C)C(c2ccc3c(c2)OCO3)NC(=O)N1 (racemic) | % | 110 |
| CC1=C(C(=O)c2ccccc2)C(c2ccc3c(c2)OCO3)NC(=S)N1 (racemic) | % | 8.05 |
| CC(=O)N1C(=S)NC(C)=C(C(=O)OCc2ccccc2)C1c1ccc2c(c1)OCO2 (racemic) | % | 77.9 |
| CC1=C(C(=O)OCC(C)C)C(c2ccc3c(c2)OCO3)NC(=S)N1 (racemic) | % | 110 |

Exercise: Provide one value: measured growth at 10 µM of O=C1C2=C(NC(=S)NC2c2ccc3c(c2)OCO3)c2ccccc21 (racemic)
Solution: 111

###

system: MDA-MB-231; assay: Growth inhibition of human MDA-MB-231 cells assessed as growth percentage at 10 uM incubated for 48 hrs by sulforhodamine B assay relative to control; assay type: functional; conditions: MDA-MB-231, 48 h, read-out: Activity
Measurement Kind: growth at 10 µM (%)
Your answer should be a plain number; it is taken to be in %.

Example results:
| Compound | growth at 10 µM (%) |
| --- | --- |
| O=C1C2=C(NC(=S)NC2c2ccc3c(c2)OCO3)c2ccccc21 (racemic) | 104 |
| CC(=O)N1C(=S)NC(C)=C(C(=O)OCC(C)C)C1c1ccc2c(c1)OCO2 (racemic) | 88.7 |

Exercise: For the compound COCCOC(=O)C1=C(C)NC(=O)NC1c1ccc2c(c1)OCO2 (racemic) , give its measured growth at 10 µM value.
Solution: 98.8

Exercise: State its growth at 10 µM for this compound: CC(=O)N1C(=S)NC(C)=C(C(=O)OC(C)C)C1c1ccc2c(c1)OCO2 (racemic)
Solution: 88.9

Exercise: Please give the documented growth at 10 µM of CC(=O)C1=C(C)NC(=S)NC1c1ccc2c(c1)OCO2 (racemic)
Solution: 104

Exercise: Supply growth at 10 µM value. Item: COCCOC(=O)C1=C(C)NC(=S)NC1c1ccc2c(c1)OCO2 (racemic)
Solution: 105

Exercise: Return reported growth at 10 µM. Input compound: COCCOC(=O)C1=C(C)NC(=S)N(C(C)=O)C1c1ccc2c(c1)OCO2 (racemic)
Solution: 97.8

Exercise: Could you please provide reported growth at 10 µM for CC1=C(C(=O)OC(C)C)C(c2ccc3c(c2)OCO3)NC(=S)N1 (racemic) ? Thanks!
Solution: 101

###

system: MDA-MB-468; assay: Growth inhibition of human MDA-MB-468 cells assessed as growth percentage at 10 uM incubated for 48 hrs by sulforhodamine B assay relative to control; assay type: functional; conditions: MDA-MB-468, 48 h, read-out: Activity
Measurement Kind: growth at 10 µM (%)
Output spec: scalar in %, unitless text.

| Compound | Test System | growth at 10 µM [%] |
| --- | --- | --- |
| CC(=O)C1=C(C)Nc2nc3ccccc3n2C1c1ccc2c(c1)OCO2 (racemic) | MDA-MB-468 | 109 |
| CC1=C(C(=O)OC(C)C)C(c2ccc3c(c2)OCO3)NC(=S)N1 (racemic) | MDA-MB-468 | 115 |
| CC(=O)C1=C(C)NC(=O)NC1c1ccc2c(c1)OCO2 (racemic) | MDA-MB-468 | 105 |
| CC(=O)N1C(=S)NC(C)=C(C(=O)OC(C)C)C1c1ccc2c(c1)OCO2 (racemic) | MDA-MB-468 | 104 |
| COCCOC(=O)C1=C(C)NC(=S)N(C(C)=O)C1c1ccc2c(c1)OCO2 (racemic) | MDA-MB-468 | 105 |

Exercise: For the compound CC(=O)N1C(=S)NC(C)=C(C(=O)OCc2ccccc2)C1c1ccc2c(c1)OCO2 (racemic) , give its measured growth at 10 µM value.
Solution: 78.9

Exercise: Give the reported value of growth at 10 µM for this record: CC(=O)N1C(=S)NC(C)=C(C(=O)OCC(C)C)C1c1ccc2c(c1)OCO2 (racemic)
Solution: 94.9

Exercise: Give the reported growth at 10 µM for this compound. CC1=C(C(=O)OC(C)C)C(c2ccc3c(c2)OCO3)NC(=O)N1 (racemic)
Solution: 104

Exercise: Provide only the value of recorded growth at 10 µM for CC(=O)C1=C(C)NC(=S)NC1c1ccc2c(c1)OCO2 (racemic)
Solution: 113

###

assay: Growth inhibition of human HEK293 cells assessed as cell viability at 0.39 ug incubated for 48 hrs by MTT assay relative to control; type: cell-based; details: read-out: Activity
Measurement Kind: viability at 48 h, 0.39 ug (%)
Give your result in % as a bare value.

| Molecule | viability at 48 h, 0.39 ug [%] |
| --- | --- |
| CC1(C)CC(=O)C2=C(C1)NC(=O)NC2c1ccc2c(c1)OCO2 (racemic) | 78 |
| CC(=O)N1C(=S)NC(C)=C(C(=O)OCc2ccccc2)C1c1ccc2c(c1)OCO2 (racemic) | 76.2 |
| CC(=O)C1=C(C)Nc2nc3ccccc3n2C1c1ccc2c(c1)OCO2 (racemic) | 77.4 |

Exercise: For the molecule CC1=C(C(=O)c2ccccc2)C(c2ccc3c(c2)OCO3)NC(=S)N1 (racemic) , report viability at 48 h, 0.39 ug.
Solution: 86.8

Exercise: Determine its reported viability at 48 h, 0.39 ug: CC1=C(C(=O)OCc2ccccc2)C(c2ccc3c(c2)OCO3)n2c(nc3ccccc32)N1 (racemic)
Solution: 77.6

Exercise: Specify viability at 48 h, 0.39 ug for COc1cccc2c1C(=O)c1c(O)c3c(c(O)c1C2=O)C[C@@](O)(C(=O)CO)C[C@@H]3O[C@H]1C[C@H](N)[C@H](O)[C@H](C)O1 and stop.
Solution: 75.1

Cited source for all entries: ChEMBL document CHEMBL4406880
